All figures here come from the supplement of paper PMC10567573.

Assay: protein stability index of a GFP-peptide fusion (GPS, HEK-293T) (PSI 1-6); higher = more stable;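 note: 24-mer peptide tiles fused after GFP, lentivirally expressed, FACS-sorted into six equal bins by GFP/DsRed ratio, decoded by Illumina sequencing, PSI is the read-weighted mean bin number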
Details: treatment: DMSO; c terminus: a fixed tail appended
quantity_measured: protein stability index
I'd appreciate a reply containing only the number, no unit.

-- ask What value of protein stability index has been reported for the following sequence? GLDFHRFYFENLWSRNSKPVHTTI [CAMK2A]
-- reply 2.28

-- ask What value of protein stability index has been reported for the following sequence? TLPLTLIVILENIAVAWIYGTKKF [SLC6A17]
-- reply 3.03

-- ask What value of protein stability index has been reported for the following sequence? YDYVREFKRSTGTWHHTKPLLPSD [GAN]
-- reply 3.2

-- ask What value of protein stability index has been reported for the following sequence? AMPDPTVPDSDIKALTTLCDLADR [ESRRG]
-- reply 5.11

-- ask What value of protein stability index has been reported for the following sequence? IPGEHFWLLLLTRGLVGVGEASYS [SPNS1]
-- reply 3.1

-- ask What value of protein stability index has been reported for the following sequence? LPAGAGAPKAGLEEAPAVTAGLKI [TNFSF13B]
-- reply 4.65

-- ask What value of protein stability index has been reported for the following sequence? RTAMPYGGYEKASKRMTFQMPKFD [MYOZ1]
-- reply 2.76

-- ask What value of protein stability index has been reported for the following sequence? EPSFAQFSQEIGLASLGASEEAVQ [TPH1]
-- reply 5.17

-- ask What value of protein stability index has been reported for the following sequence? GKPLIPPMNRRNILVMKHNYSQDA [NETO1]
-- reply 2.98

-- ask What value of protein stability index has been reported for the following sequence? RVKFKSQQHRQGRSHHLEMVIQLL [PTGFR]
-- reply 2.44

-- ask What value of protein stability index has been reported for the following sequence? EDYSAEYIIQQGGWGTVFSLESEE [BCL2L13]
-- reply 4.17

-- ask What value of protein stability index has been reported for the following sequence? EVILGDIWKLNLQTFQWVKLPATM [KLHDC10]
-- reply 2.51

-- ask What value of protein stability index has been reported for the following sequence? FVIGHLKGAPASWWNHMHFQHHAK [FADS1]
-- reply 2.65

-- ask What value of protein stability index has been reported for the following sequence? GGFGSMLRALGAQIEKTTNREACR [SDE2]
-- reply 3.27

-- ask What value of protein stability index has been reported for the following sequence? MSPESYLGSPQHSPSTRGSPNRSL [ATF4]
-- reply 4.64

-- ask What value of protein stability index has been reported for the following sequence? PVDSVLFYAITTLHNLLLHQEGAK [CTNNB1]
-- reply 2.81

-- ask What value of protein stability index has been reported for the following sequence? RDSTARRPRPQGRSVSEPRDQHPQ [RTN2]
-- reply 5.3

-- ask What value of protein stability index has been reported for the following sequence? RETVLIETQLKACASFIRTRLLLQ [C8orf76]
-- reply 2.88

-- ask What value of protein stability index has been reported for the following sequence? SPDILEEKHCEFKQLALDHFKKTK [ATL3]
-- reply 4.79

-- ask What value of protein stability index has been reported for the following sequence? RSWAMLFASGGFQVKLYDIEQQQI [CRYL1]
-- reply 2.16

-- ask What value of protein stability index has been reported for the following sequence? FDIARIERCNQLLRALKLVITALK [ZER1]
-- reply 2.33

-- ask What value of protein stability index has been reported for the following sequence? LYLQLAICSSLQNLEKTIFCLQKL [C8orf76]
-- reply 3.12

-- ask What value of protein stability index has been reported for the following sequence? NDFWRIEVVNRKFGNRIKVLRSRI [POMT2]
-- reply 2.19

-- ask What value of protein stability index has been reported for the following sequence? PLVEKKRRARINESLQELRLLLAG [HES6]
-- reply 2.63

-- ask What value of protein stability index has been reported for the following sequence? VKELRPQLMTSQFISVFSNLLESK [ZER1]
-- reply 2.38

-- ask What value of protein stability index has been reported for the following sequence? LALFSHLVNHVNIRLQAELEEGEN [SMG5]
-- reply 2.5

-- ask What value of protein stability index has been reported for the following sequence? RDRNLLQEDKALWEEEKALWVEER [CCDC70]
-- reply 5.01

====

Experiment: protein stability index of a GFP-peptide fusion (GPS, HEK-293T) (PSI 1-6); higher = more stable
Conditions: treatment: DMSO; c terminus: a fixed tail appended
quantity_measured: protein stability index

-- ask What value of protein stability index has been reported for the following sequence? APLGYKEPERQVQHEESTEGEADH [UFD1]
-- reply 5.55

-- ask What value of protein stability index has been reported for the following sequence? MPSPTDVVLPGAVSLRYSGATAAS [ADAMTS4]
-- reply 4.16

-- ask What value of protein stability index has been reported for the following sequence? TGVVEFVRKEDMTYAVRKLDNTKF [SRSF1]
-- reply 3.02

-- ask What value of protein stability index has been reported for the following sequence? GWLPSHEGHLDDGGYTPDLKMSYS [RBMY1A1]
-- reply 3.62

-- ask What value of protein stability index has been reported for the following sequence? VTAKTAPDVLRTKPAFIGKTNLDG [PTPRD]
-- reply 3.73

-- ask What value of protein stability index has been reported for the following sequence? DRTSLATFHEGKHNISHMSMDIAR [WDFY1]
-- reply 3.54

-- ask What value of protein stability index has been reported for the following sequence? SRVLQNGGDKLETMPLYLEDDIRP [SCD]
-- reply 4.66

====

Provide the reported protein stability index of each item.
Experiment: protein stability index of a GFP-peptide fusion (GPS, HEK-293T) (PSI 1-6); higher = more stable
Conditions: treatment: MLN4924 1 uM, 8 h; c terminus: a fixed tail appended
I'd appreciate a reply containing only the number, no unit.

-- ask What value of protein stability index has been reported for the following sequence? SLCVLVSTVGKLCRLINEDVNEQV [CEP70]
-- reply 2.96

-- ask What value of protein stability index has been reported for the following sequence? QGFSYSKSNGRGGSQAGGSGSAGQ [MYOZ1]
-- reply 5.02

-- ask What value of protein stability index has been reported for the following sequence? VKELRPQLMTSQFISVFSNLLESK [ZER1]
-- reply 2.61

-- ask What value of protein stability index has been reported for the following sequence? SAPYSAAFLELPHGSGGSGYPAAP [TBX6]
-- reply 3.55

-- ask What value of protein stability index has been reported for the following sequence? RTELLKDAIGEGKVTLRIRNVRFS [MOG]
-- reply 2.79

-- ask What value of protein stability index has been reported for the following sequence? HQVTVNESLLAPLNVELDPEIQKV [KRT71]
-- reply 4.45

-- ask What value of protein stability index has been reported for the following sequence? VVLPGAVSLRYSGATAASETLSGH [ADAMTS4]
-- reply 2.96

-- ask What value of protein stability index has been reported for the following sequence? YYLALLLSLLVMVISPVIQLQPTF [NSDHL]
-- reply 2.91

-- ask What value of protein stability index has been reported for the following sequence? EIPENYNSAMPFKILYDDGKMVEE [PTPRD]
-- reply 4.79

-- ask What value of protein stability index has been reported for the following sequence? LKPTFTKQQIANLDKQAKLSRAYD [USP39]
-- reply 3.74

-- ask What value of protein stability index has been reported for the following sequence? ARDRQPSDFKTDKEGGQAGSGQRV [ELOA2]
-- reply 5.26

-- ask What value of protein stability index has been reported for the following sequence? VSHPIIYRGAVYADNMEFEQCIKL [FEM1B]
-- reply 2.5

-- ask What value of protein stability index has been reported for the following sequence? GADGVMRTMAPEKLLKSMPILQGQ [SNAP91]
-- reply 3.77

-- ask What value of protein stability index has been reported for the following sequence? AGRNVLRWDLSPEQIKTRTEELIV [NLN]
-- reply 3.23

-- ask What value of protein stability index has been reported for the following sequence? QGEQLEVPERLLVVLDMEEGTLGY [SPSB2]
-- reply 3.06

-- ask What value of protein stability index has been reported for the following sequence? KPYIAAHFDVLPTEFTLGDDKHYG [PTPRD]
-- reply 3.44

-- ask What value of protein stability index has been reported for the following sequence? FDVHPNELTNGVINAAFMLLFKDL [SNAP91]
-- reply 2.24

-- ask What value of protein stability index has been reported for the following sequence? SLKEEHRAYDLLRAASENSQDALR [IKZF1]
-- reply 4.36

-- ask What value of protein stability index has been reported for the following sequence? TKPQNLNDAYGPPSNFLEIDVSNP [SNX3]
-- reply 4.29

-- ask What value of protein stability index has been reported for the following sequence? ESACSSDSLDEARSSGSEGTPADT [PWWP2B]
-- reply 5.5

-- ask What value of protein stability index has been reported for the following sequence? FALIAVVFLASGAVSVMKKCRKLE [SLC19A2]
-- reply 3

-- ask What value of protein stability index has been reported for the following sequence? EMGGSEGIVESIQIMKEGKATASE [NETO1]
-- reply 5.61

-- ask What value of protein stability index has been reported for the following sequence? SNVSSSGSINLLESPQLATLAEDV [MAP2]
-- reply 5.17

-- ask What value of protein stability index has been reported for the following sequence? HSDPEESFARDLPDFPSINMDPAG [RETREG3]
-- reply 5.22

-- ask What value of protein stability index has been reported for the following sequence? TNSTPLRAACFDGHLEIVKYLVEH [FEM1C]
-- reply 2.39

-- ask What value of protein stability index has been reported for the following sequence? PDTMEKLRTHIDAIILALPEDLQG [DENND6A]
-- reply 3.02

-- ask What value of protein stability index has been reported for the following sequence? KVHIGYLPNKQVLGLSKLARIVEI [GCH1]
-- reply 2.48
